- assay-system: guinea pig tracheal strips (Cavia porcellus)
- Sequence (Q8K4Z4 whole entry): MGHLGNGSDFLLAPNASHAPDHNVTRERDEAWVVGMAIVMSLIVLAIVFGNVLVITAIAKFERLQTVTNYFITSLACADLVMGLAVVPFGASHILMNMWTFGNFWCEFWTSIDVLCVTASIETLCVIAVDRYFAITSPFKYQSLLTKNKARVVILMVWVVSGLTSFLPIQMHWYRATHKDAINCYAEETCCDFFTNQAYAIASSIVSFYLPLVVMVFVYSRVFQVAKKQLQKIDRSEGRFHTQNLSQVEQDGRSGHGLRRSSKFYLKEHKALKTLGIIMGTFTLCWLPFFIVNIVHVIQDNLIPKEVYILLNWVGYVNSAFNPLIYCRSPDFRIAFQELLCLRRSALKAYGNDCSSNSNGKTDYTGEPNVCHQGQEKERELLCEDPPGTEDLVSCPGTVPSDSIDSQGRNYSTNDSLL
- assay-remarks: cell-based
- Type: cell-based
- test-context: read-out: pA2 Trachea (converted)
Form field: Kb (one value per entry).
State just the number; it will be interpreted in µM.

# compound, Kb (µM)
rows = [
    ("COC(=O)c1ccc(CNCC(O)COc2ccccc2C)cc1 (stereo not shown) [XVI]", 0.2),
]

Entry COC(=O)CCNCC(O)COc1cccc2ccccc12 (stereo not shown) [XXIX] , Kb reported as 0.0251

Entry CCOC(=O)c1ccc(CNCC(O)COc2ccccc2C)cc1 (stereo not shown) [XV] , Kb reported as 1.26

###

- assay-remarks: Disappearance in vitro in dog whole blood
- Assay type: in vitro ADME
- test-context: 50 μg in 1 mL added to 1 mL dog whole blood, 37° C.; read-out: T1/2 Dog Whole Blood
- Description: The rate of disappearance of a compound is expressed as the half-life (T1/2), which is the time period in which one-half of the initial amount of compound tested disappears. In each experiment, 1 mL of a solution containing 50 μg of the test compound was added to 1 mL of whole blood or 1 mL of a 33% (w/v) liver homogenate. […] The half life of each test compound was determined graphically by plotting the decrease in concentration as a function of time.
assay-endpoint: half-life (h)
State just the number; it will be interpreted in h.

Previously resolved entries follow.
# compound, u, recorded-result
data = [
    ("CCOC(=O)CCNCC(O)COc1ccccc1Cl (centres unmarked)", "h", 1.23),
    ("CCOC(=O)CCNCC(O)COc1cccc(Cl)c1 (centres unmarked)", "h", 0.667),
    ("COC(=O)CCNCC(O)COc1ccccc1C (centres unmarked)", "h", 0.867),
    ("CCOC(=O)CCCCNCC(O)COc1ccccc1C (centres unmarked)", "h", 2.53),
]

Proceed to the following item.
Entry CCOC(=O)CCNCC(O)COc1ccccc1C (centres unmarked) , half-life reported as 3
